- target_or_system: RfaE (Escherichia coli, UniProt P76658)
- Sequence (P76658 whole entry): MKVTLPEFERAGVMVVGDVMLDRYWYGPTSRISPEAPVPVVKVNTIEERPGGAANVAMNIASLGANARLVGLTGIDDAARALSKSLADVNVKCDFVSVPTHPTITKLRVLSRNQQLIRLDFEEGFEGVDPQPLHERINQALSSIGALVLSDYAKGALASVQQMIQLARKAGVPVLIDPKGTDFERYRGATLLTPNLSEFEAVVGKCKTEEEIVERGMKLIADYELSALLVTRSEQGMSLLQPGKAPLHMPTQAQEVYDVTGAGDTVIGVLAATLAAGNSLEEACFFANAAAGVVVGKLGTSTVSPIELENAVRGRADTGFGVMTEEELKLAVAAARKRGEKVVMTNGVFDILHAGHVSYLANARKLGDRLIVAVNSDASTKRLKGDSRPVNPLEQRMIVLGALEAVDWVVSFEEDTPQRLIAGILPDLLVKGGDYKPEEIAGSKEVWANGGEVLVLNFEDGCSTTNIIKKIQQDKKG
# IC50 values compiled below
Please don't drop the unit; write it after the number.

Examples from the recorded data:
compound	value_measured
Cc1nc(-c2ccccc2)sc1C(=O)N(CC(=O)O)Cc1ccccn1	52 µM
COc1cccc(-c2nc(C(=O)N(CC(=O)O)Cc3ccccn3)c(C)o2)c1	15 µM
Cc1oc(-c2ccccc2)nc1C(=O)N(CC(=O)O)Cc1nccs1	110 µM
Cc1oc(-c2ccccc2[N+](=O)[O-])nc1C(=O)N(CC(=O)O)Cc1ccccn1	141 µM
CC(=O)c1cccc(-c2nc(C)c(C(=O)N(CC(=O)O)Cc3ccccn3)s2)c1	216 µM
Cc1oc(-c2ccccc2)nc1C(=O)N(CC(=O)O)Nc1ccccn1	65 µM

Problem: Field request: IC50 | item: COc1cccc(-c2nc(C(=O)N(CC(=O)O)Cc3ccc4ccccc4n3)c(C)o2)c1
Solution: 12 µM

Problem: Repeat for the following compound: Cc1nn(-c2ccccc2)nc1C(=O)N(CC(=O)O)Cc1ccccn1
Solution: 48 µM

Problem: Repeat for the following compound: Cc1oc(-c2cccc([N+](=O)[O-])c2)nc1C(=O)N(CC(=O)O)Cc1ccccn1
Solution: 3.8 µM

Problem: Repeat for the following compound: COc1cccc(-c2nc(C)c(C(=O)N(CC(=O)O)C(C)c3ccccn3)o2)c1 (stereo not shown)
Solution: 19.2 µM

Problem: Repeat for the following compound: COc1cccc(-c2nc(C)c(C(=O)N(CC(=O)O)Cc3nc4ccccc4s3)o2)c1
Solution: 0.24 µM

Problem: Repeat for the following compound: COc1cccc(-c2nc(C)c(C(=O)N(CC(=O)O)Cc3nc4cc(OC)ccc4s3)o2)c1
Solution: 1.09 µM

Problem: Repeat for the following compound: Cc1nc(-c2ccc(Cl)cc2)oc1C(=O)N(CC(=O)O)Cc1ccccn1
Solution: 54 µM

Problem: Repeat for the following compound: Cc1nc(-c2ccc(N)c([N+](=O)[O-])c2)sc1C(=O)N(CC(=O)O)Cc1ccccn1
Solution: 12.9 µM

---

Below are IC50 values recorded for UniProt:P76658.
Report as a plain number; the unit µM is understood.

Problem: Field request: IC50 | item: Cc1oc(-c2cccc(C(F)(F)F)c2)nc1C(=O)N(CC(=O)O)Cc1ccccn1 [XIV]
Solution: 35

Problem: Repeat for the following compound: Cc1oc(-c2ccc(C(F)(F)F)cc2)nc1C(=O)N(CC(=O)O)Cc1ccccn1 [XVI]
Solution: 142

Problem: Repeat for the following compound: CC(=O)Oc1cccc(-c2nc(C)c(C(=O)N(CC(=O)O)Cc3ccccn3)o2)c1 [IV]
Solution: 52

Problem: Repeat for the following compound: Cc1oc(-c2cccc(NC(=O)C3CC3)c2)nc1C(=O)N(CC(=O)O)Cc1ccccn1 [XXVIII]
Solution: 14

Problem: Repeat for the following compound: Cc1nc(-c2ccc3ccccc3c2)sc1C(=O)N(CC(=O)O)Cc1nc2ccccc2s1 [XLI]
Solution: 0.48

Problem: Repeat for the following compound: Cc1oc(-c2ccccc2N)nc1C(=O)N(CC(=O)O)Cc1ccccn1 [XXVI]
Solution: 31

Problem: Repeat for the following compound: O=C(O)CN(Cc1ccccn1)C(=O)c1ccc(-c2ccccc2)o1 [VII]
Solution: 100

Problem: Repeat for the following compound: Cc1nc(-c2ccc3[nH]ccc3c2)sc1C(=O)N(CC(=O)O)Cc1nc2ccccc2s1 [XXXVIII]
Solution: 0.33

Problem: Repeat for the following compound: Cc1oc(-c2ccc(N)cc2)nc1C(=O)N(CC(=O)O)Cc1ccccn1 [XXVII]
Solution: 22
